Entry source: patent US20250368734A1

assayed_target: T1, human GPRC5D (human, UniProt Q9NZD1 1-345)
T1 construct: whole, on cells; also called hGPRC5D; G-protein coupled receptor family C group 5 member D
T1 sequence (Q9NZD1 whole entry): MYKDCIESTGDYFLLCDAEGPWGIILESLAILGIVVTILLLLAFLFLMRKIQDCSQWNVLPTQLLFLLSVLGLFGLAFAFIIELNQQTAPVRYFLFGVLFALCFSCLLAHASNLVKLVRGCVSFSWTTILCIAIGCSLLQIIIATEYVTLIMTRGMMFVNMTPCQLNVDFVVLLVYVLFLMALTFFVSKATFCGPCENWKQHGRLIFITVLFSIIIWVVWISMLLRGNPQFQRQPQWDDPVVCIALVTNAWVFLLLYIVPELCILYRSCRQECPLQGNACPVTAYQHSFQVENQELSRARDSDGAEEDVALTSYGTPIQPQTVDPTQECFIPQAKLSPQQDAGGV
protocol_notes: FACS, HEK293T-hGPRC5D cells
measured_metric: % Positive (%)
Numbers only, in %.

## Task I have this binder here, 101B3G3 (antibody, V domains shown, Mouse monoclonal antibody from hybridoma subclone) VH: EVQLQQSGPELVKPGASMKISCKASGYSFTGYTMNWVKQSHGKNLEWIGLINPYNGGTRYNQKFKDKATLTVDKSSSTAYMELLSLTSEDSAVYYCARWLLRYAMDYWGQGTSVTVSS VL: DIVMTQSQKFMSTSVGDRVSITCKASQNVGNAVAWYQQKPGHSPKLLISSASNRKNGVPDRFTGSGSGTDFTLTVSNMQSEDLADYFCQQYSDSSWTFGGGTKLEIK , and I need its recorded % Positive.
## Result 97.9
